biological target: Caspase-3 (Homo sapiens); type: functional;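 also: Dose-response selectivity test against caspase-3 for candidate inhibitors of sentrin-specific proteases (SENPs)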
Active and inactive are the calls of the source.
outcomeMeasure: IC50

> print(dat)
                                   compound  outcomemeasure     reportedvalue
1  Cc1cc([N+](=O)[O-])cc(/C=N\NC(=O)C2COc3ccccc3O2)c1O (configuration not stated)            IC50  17.6 µM (active)
2           O=C(Oc1ccc2ccccc2c1Cl)N1CCCCCC1            IC50  17.4 µM (active)
3        Cc1ccc(Oc2cc(-n3nc(C)cc3C)ncn2)cc1            IC50  23.5 µM (active)
4              c1ccc(-c2nc(C3CCCCC3)no2)cc1            IC50  57.1 µM (active)

Please state IC50 for every compound in the list that follows.
1. CC(C)(C)c1cc[n+](C2=C([N-]S(=O)(=O)c3cccs3)C(=O)c3ccccc3C2=O)cc1
2. N=c1oc2ccccc2cc1C(=O)Nc1ccccc1
3. CCCNC(=O)c1c(N)n(CC2CCCO2)c2nc3ccccc3nc12 (configuration not stated)

1: 23.8 µM (active); 2: 13.6 µM (active); 3: 15.2 µM (active)

====

// AC50 collected for Cytochrome P450 2C9 (Homo sapiens, UniProt P11712)

# example entries with known answers
> print(dat)
                                   compound                              targetentity  outcomemeasure  reportedvalue
1    CCNc1nc(Oc2c(Cl)cccc2Cl)cc(C(F)(F)F)n1  Cytochrome P450 2C9 (Homo sapiens, UniProt P11712)            AC50   inconclusive
2  CCCCC1(C)OC(=O)C(=Cc2ccc(N(C)C)cc2)C(=O)O1 (stereo unspecified)  Cytochrome P450 2C9 (Homo sapiens, UniProt P11712)            AC50   inconclusive
3  COc1ccc2c(c1O)-c1c(OC)c(OC)cc3c1[C@H](C2)N(C)CC3  Cytochrome P450 2C9 (Homo sapiens, UniProt P11712)            AC50   inconclusive
4  CS(=O)(=O)Nc1cccc(-c2cc(NCc3cccs3)ncn2)c1  Cytochrome P450 2C9 (Homo sapiens, UniProt P11712)            AC50   inconclusive
5  COc1cc(-c2nnc(SCC3(c4ccccc4)OCCO3)o2)cc(OC)c1OC  Cytochrome P450 2C9 (Homo sapiens, UniProt P11712)            AC50   inconclusive

Kindly review the next compound as well.
I'd like to know its AC50. The compound in question is COc1cc(N)c(Cl)cc1C(=O)NC1CCN(Cc2ccccc2)CC1 [CLEBOPRIDE]
inconclusive

====

test system: H9c2; assay: cells; type: functional, cell-based; conditions: Rattus norvegicus, H9c2, Myocardium;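 also: cell death induced by hydrogen peroxide oxidative stress; compound pretreatment for 60 min then peroxide exposure for 2 h; potency is for protecting the cells against peroxide damage rather than for killing them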;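 also: confirmatory concentration-response retest of ultra-high-throughput screening hits for modulation of myocardial damage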
Activity calls are given as the source filed them.
Permitted responses: TRUE for active, FALSE for inactive

Before answering, review these 3 worked examples.
> print(dat)
                                   molecule  classlabel
1  COc1ccc(C=CC(=O)c2ccc3cc(OC)c(OC)cc3c2)cc1OC       FALSE
2  O=C1[C@H]2[C@@H](c3ccc(C(F)(F)F)cc3)N[C@]3(CCCN(Cc4ccc(F)cc4)C3=O)[C@H]2C(=O)N1Cc1ccccc1       FALSE
3        CCN(CC)CCNC(=O)CCc1nnc(O)c2ccccc12       FALSE

Identify the outcome logged in this assay for the molecule shown: COCCn1nnnc1CN(CCc1ccccc1)Cc1cc2cc(OC)ccc2nc1O
TRUE

Test call for this molecule, please: Cc1[nH]c2ccccc2c1/C=N/NC(=O)c1cccs1
FALSE

What outcome does the record of this test show for CC(OC(=O)CCc1nc(O)c2ccccc2n1)C(=O)Nc1ccc2c(c1)OCO2 (stereo unspecified) ?
FALSE
